# Target of assay: truncated His-MBP-Tev-KLHDC2 (residues 1-363) (Homo sapiens, UniProt Q9Y2U9)
# Construct: truncated His -MBP-Tev-KLHDC2 (residues 1-363) purified from E. coli; made in house; host or cells: E. coli
# Sequence (Q9Y2U9 1-363): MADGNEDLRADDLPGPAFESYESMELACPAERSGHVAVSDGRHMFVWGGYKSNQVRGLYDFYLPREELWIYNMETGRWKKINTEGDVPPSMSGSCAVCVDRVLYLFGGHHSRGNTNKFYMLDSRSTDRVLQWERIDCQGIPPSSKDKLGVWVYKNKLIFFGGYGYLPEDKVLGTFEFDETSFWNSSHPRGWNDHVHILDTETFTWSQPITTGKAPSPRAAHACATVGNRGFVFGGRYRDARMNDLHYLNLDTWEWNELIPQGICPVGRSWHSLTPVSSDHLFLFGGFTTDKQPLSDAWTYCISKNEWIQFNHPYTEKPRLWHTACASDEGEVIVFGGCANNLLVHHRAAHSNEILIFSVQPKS
# Assay notes: KLHDC2 HTRF binding assay
# Cond: 1 nM KLHDC2 (residues 1-363), fluorescein-labeled diglycine peptide probe
Property: IC50

In the examples that follow, each entry is paired with its recorded IC50.
Compound: NCCCCCCn1ccc2c(C(=O)Nc3ccc(=O)n(CC(=O)O)c3)cccc21
IC50: > 5 µM
--
Compound: O=C(O)Cn1cc(CNC(=O)c2ccccc2)ccc1=O
IC50: > 5 µM

-- ask // IC50 lookup, key: O=C(O)CN1C(=O)Cc2ccccc21
-- reply > 5 µM

-- ask // IC50 lookup, key: O=C(O)CC(C(=O)n1ccc2ccccc21)c1ccc(=O)n(CC(=O)O)c1 (stereo not shown)
-- reply > 5 µM

---

# Target of assay: truncated His-MBP-Tev-KLHDC2 (residues 1-363) (Homo sapiens, UniProt Q9Y2U9)
# Construct: truncated His -MBP-Tev-KLHDC2 (residues 1-363) purified from E. coli; made in house; host or cells: E. coli
# Sequence (Q9Y2U9 1-363): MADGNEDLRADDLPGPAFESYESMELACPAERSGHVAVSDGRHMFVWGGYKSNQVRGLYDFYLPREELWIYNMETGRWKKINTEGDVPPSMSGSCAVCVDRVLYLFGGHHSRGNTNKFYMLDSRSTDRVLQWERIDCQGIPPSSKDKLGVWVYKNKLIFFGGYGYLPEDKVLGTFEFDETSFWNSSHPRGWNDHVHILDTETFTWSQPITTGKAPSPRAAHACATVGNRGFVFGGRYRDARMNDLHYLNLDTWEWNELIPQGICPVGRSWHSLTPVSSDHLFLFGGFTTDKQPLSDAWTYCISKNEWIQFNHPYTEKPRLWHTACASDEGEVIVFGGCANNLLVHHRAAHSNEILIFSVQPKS
# Assay notes: KLHDC2 FP competition binding assay
# Cond: 15 nM KLHDC2 (residues 1-363), 10 nM fluorescein-labeled diglycine peptide probe, read-out: KLHDC2 binding Human FP: average external IC50
Property: IC50

In the examples that follow, each entry is paired with its recorded IC50.
Compound: O=C(O)Cn1cc(NC(=O)c2cc(-c3cccnc3)c3ccccc3c2)ccc1=O
IC50: 0.5 to 5 µM
//
Compound: O=C(O)C1CCOc2ccc(Cl)cc21 (stereo not shown)
IC50: > 5 µM
//
Compound: O=C(O)Cn1cc(NC(=O)CC2Cc3ccc(Cl)cc3C2=O)ccc1=O (stereo not shown)
IC50: > 5 µM
//
Compound: CC(C)c1ccc(S(=O)(=O)NCCC(=O)Nc2ccc(=O)n(CC(=O)O)c2)cc1
IC50: > 5 µM

-- ask // IC50 lookup, key: O=C(O)Cn1cc(NC(=O)COc2ccccc2F)ccc1=O
-- reply > 5 µM

-- ask // IC50 lookup, key: COc1cc(-c2ccc(C)cc2)ccc1C(=O)Nc1ccc(=O)n(CC(=O)O)c1
-- reply > 5 µM

-- ask // IC50 lookup, key: O=C(O)Cn1cc(NC(=O)C(c2ccccc2)c2ccccc2)ccc1=O
-- reply > 5 µM

-- ask // IC50 lookup, key: O=C(O)C1CC(=O)N(Cc2ccccn2)C1 (stereo not shown)
-- reply > 5 µM

-- ask // IC50 lookup, key: CC(C)c1ccc(C(=O)Nc2ccc(=O)n(CC(=O)O)c2)cc1-c1ccccc1
-- reply > 5 µM

-- ask // IC50 lookup, key: O=C(O)Cn1cc(NC(=O)CCCc2ccc(C3CC3)cc2)ccc1=O
-- reply > 5 µM

---

# Target of assay: truncated His-MBP-Tev-KLHDC2 (residues 1-363) (Homo sapiens, UniProt Q9Y2U9)
# Construct: truncated His -MBP-Tev-KLHDC2 (residues 1-363) purified from E. coli; made in house; host or cells: E. coli
# Sequence (Q9Y2U9 1-363): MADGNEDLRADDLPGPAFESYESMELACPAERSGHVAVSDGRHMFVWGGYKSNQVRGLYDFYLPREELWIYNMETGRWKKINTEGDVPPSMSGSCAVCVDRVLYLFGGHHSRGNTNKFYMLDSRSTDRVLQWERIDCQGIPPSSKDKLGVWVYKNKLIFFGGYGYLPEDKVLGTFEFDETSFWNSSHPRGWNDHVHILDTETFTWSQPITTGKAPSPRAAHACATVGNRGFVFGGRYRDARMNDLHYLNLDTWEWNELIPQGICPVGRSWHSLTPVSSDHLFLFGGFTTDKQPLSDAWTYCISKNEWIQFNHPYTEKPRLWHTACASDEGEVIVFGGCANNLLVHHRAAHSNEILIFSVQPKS
# Assay notes: KLHDC2 FP competition binding assay
# Cond: 15 nM KLHDC2 (residues 1-363), 10 nM fluorescein-labeled diglycine peptide probe, read-out: KLHDC2 binding Human FP: average external IC50
pIC50: −log10 of the molar value.
Property: pIC50

In the examples that follow, each entry is paired with its recorded pIC50.
Substance smiles: CCc1cc(=O)n(CC(=O)O)cc1NC(=O)c1cccc(-c2cccnc2)c1
Property: pIC50
Test value: 5.30 to 6.30
//
Substance smiles: NCCCCCCCCCc1cccc2c(-c3cccc(C(=O)Nc4ccc(=O)n(CC(=O)O)c4)c3)cncc12
Property: pIC50
Test value: < 5.30
//
Substance smiles: CCc1cc(=O)n(CC(=O)O)cc1NC(=O)[C@H]1CCCN(c2cccnc2)C1
Property: pIC50
Test value: 5.30 to 6.30
//
Substance smiles: O=C(O)Cn1cc(NC(=O)N2CCC(c3ccccc3)CC2)ccc1=O
Property: pIC50
Test value: < 5.30

Please turn your attention to the following entry.
-- ask // pIC50 lookup, key: COc1cc(-c2ccc(F)cc2)ccc1C(=O)Nc1ccc(=O)n(CC(=O)O)c1
-- reply 5.30 to 6.30

---

# Target of assay: truncated His-MBP-Tev-KLHDC2 (residues 1-363) (Homo sapiens, UniProt Q9Y2U9)
# Construct: truncated His -MBP-Tev-KLHDC2 (residues 1-363) purified from E. coli; made in house; host or cells: E. coli
# Sequence (Q9Y2U9 1-363): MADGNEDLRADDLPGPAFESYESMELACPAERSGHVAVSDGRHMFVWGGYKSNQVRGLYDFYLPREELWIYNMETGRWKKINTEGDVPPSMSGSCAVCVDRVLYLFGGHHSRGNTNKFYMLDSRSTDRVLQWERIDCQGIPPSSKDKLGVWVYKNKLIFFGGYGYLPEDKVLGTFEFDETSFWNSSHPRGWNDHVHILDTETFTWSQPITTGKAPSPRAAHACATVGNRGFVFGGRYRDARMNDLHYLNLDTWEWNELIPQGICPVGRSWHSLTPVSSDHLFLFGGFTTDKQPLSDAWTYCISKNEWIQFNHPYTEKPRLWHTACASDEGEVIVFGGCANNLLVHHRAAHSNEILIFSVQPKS
# Assay notes: KLHDC2 HTRF binding assay
# Cond: 1 nM KLHDC2 (residues 1-363), fluorescein-labeled diglycine peptide probe
IC50 listing for selected molecules.

In the examples that follow, each entry is paired with its recorded IC50.
Substance smiles: COc1c(F)cc(-c2ccc(=O)n(CC(=O)O)c2)cc1F
IC50: > 5 µM
--
Substance smiles: O=C(O)Cn1cc(NC(=O)c2ccc(-c3ccccc3)c(F)c2)ccc1=O
IC50: 0.5 to 5 µM
--
Substance smiles: O=C(O)Cn1cc(NC(=O)c2cc(-c3ccccc3)ccn2)ccc1=O
IC50: > 5 µM

-- ask // IC50 lookup, key: Cc1cccc(-c2ccc(=O)n(CC(=O)O)c2)c1
-- reply > 5 µM

-- ask // IC50 lookup, key: CCc1cncc(N2CCC[C@H](C(=O)Nc3ccc(Cl)c(CC(=O)O)c3)C2)c1
-- reply 0.05 to 0.5 µM

-- ask // IC50 lookup, key: O=C(O)Cn1cc(NC(=O)COc2cccc(C(F)(F)F)c2)ccc1=O
-- reply > 5 µM

-- ask // IC50 lookup, key: CCOC(=O)Cn1cc(NC(=O)c2cccc(-c3cccnc3)c2)ccc1=O
-- reply > 5 µM

-- ask // IC50 lookup, key: O=C(O)Cn1cc(-c2ccccc2F)ccc1=O
-- reply > 5 µM

-- ask // IC50 lookup, key: COc1ccc(-c2ccccc2C)cc1CC(=O)O
-- reply > 5 µM

-- ask // IC50 lookup, key: COc1ccc(-c2ccccc2)cc1C(=O)Nc1ccc(=O)n(CC(=O)O)c1
-- reply > 5 µM
